These measurements were taken from patent US12528869B2.

assay: Anti-proliferation assay (CellTiter-Glo) in Ba/F3 cells with EGFR Exon20ins; type: cell-based; conditions: Mus musculus, BaF3; mutant EGFR Exon20ins Ba/F3 cells (data not shown); read-out: IC50, cell viability
recorded endpoint: IC50

Problem: Data request, read-out IC50, for C=CC(=O)N1CCC(Oc2cc3c(Nc4ccc(Cl)c(Cl)c4F)ncnc3cc2OC)CC1 [poziotinib]
Result: 0.8 to 10.9 nM
